- experimental_system: T1, CXCL13 (human, UniProt O43927 23-109)
- T1 construct: human CXCL13
- T1 sequence (looked up): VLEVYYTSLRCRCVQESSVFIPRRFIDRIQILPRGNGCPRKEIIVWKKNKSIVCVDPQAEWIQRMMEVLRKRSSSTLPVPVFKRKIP
- test_protocol: BLI; cross-binding screen on OctetRed; evasin held on a nickel-coated biosensor through its C-terminal His tag; each human chemokine at 300 nM
- experimental_setup: both partners purified
reported_endpoint: binding result

binder	reported_endpoint	measured_result
P1100_IXORI (natural protein, evasin P1100, mature peptide, 68 residues; N-terminal DGG expected after signal peptide cleavage; glycosylated) GSKGSSASQSSDNSVVAKFCDTNCTINEGGKWTECKGGCFCVHVGNETVGRCMKLDGDYDYPSPKPEE	binding result	binds
P942_IXORI (natural protein, evasin P942, mature peptide, 66 residues; N-terminal DGG expected after signal peptide cleavage; glycosylated) NQLSGPQSSANSNEAVFCDTNCTQGTDEAWSGCRGDCFCVYVGNSTEGRCMMLSGDFDYSTPGAED	binding result	binds
P1078_IXORI (natural protein, evasin P1078, mature peptide, 68 residues; N-terminal DGG expected after signal peptide cleavage; glycosylated) GSKGSSAQQSSHDSIKAEFCETNCTMKTGGKWTQCHGGCFCVHVGNETVGRCIKLDGDYDYPSSKHEE	binding result	binds
P1086_IXORI (natural protein, evasin P1086, mature peptide, 66 residues; N-terminal DGG expected after signal peptide cleavage; glycosylated) GSKGQRASQVSETSITAEFCDTSCTQGTDKTWSGCSGDCFCVHVGNDTEGRCMRWDGDYPSAEEEE	binding result	binds
